Where do these numbers come from? They come from PubChem BioAssay (NCI).

tested on: HCC-2998 colon; assay: NCI-60 one-dose screen, 48 h; settings: 10 µM unless noted
This is part of a sample that, as a whole, favours compounds with a hit. Of some 83,000 tested, about 20% had one in any assay. Calls of active or inactive are those of the source. How the source made its calls: active means growth percent below 10; inactive means the rest.
Outcomes: True = active, False = inactive

* OCCCc1n(Cc2ccc3ccccc3c2)c2ccccc2[n+]1Cc1ccc2ccccc2c1 | False
* CCc1nn2c(-c3ccc(Cl)cc3C)c(-c3cc(OC)c(OC)c(OC)c3)nc2s1 | False
* NS(=O)(=O)c1ccc(-n2ncc3c(NC4CCCCC4)ncnc32)cc1 | False
* CC(=O)N1N=C(c2ccc(C(F)(F)F)cc2)CC1c1ccc2c(c1)OCO2 (stereo not drawn) | False
* Cc1ccc2nc3c(n2c1)C(=O)C(=O)c1ccccc1-3 | True
* c1ccc2nc(Cn3c[n+](Cc4ccc5ccccc5n4)c4ccccc43)ccc2c1 | False
* C[C@H]1O[C@@H](O[C@H]2[C@@H](O)C[C@H](O[C@H]3[C@@H](O)C[C@H](O[C@H]4CC[C@]5(C)C6C[C@@H](O)[C@]7(C)[C@@H](C8=CC(=O)OC8)CC[C@]7(O)C6CC[C@@H]5C4)O[C@@H]3C)O[C@@H]2C)C[C@H](O)[C@@H]1O (stereo partly drawn) | True
* C=C1CC[C@@H]2[C@](C)(COC(C)=O)[C@H](OC(C)=O)CC[C@@]2(C)[C@@H]1CC(NCc1ccccc1)C1=CCOC1=O (stereo partly drawn) | False
* c1ccc(N2c3nc4ccccc4cc3Sc3cc4ccccc4nc32)nc1 | False
* COC(=O)c1c(NC(=O)CSc2nnnn2-c2ccc(OC)cc2)sc(C)c1C | False
* Cc1ccc(C(NC(=O)c2ccccc2)c2ccc3cccnc3c2O)cc1 (stereo not drawn) | False
* Nc1ccn(C2O[C@H](CO)[C@@H](O)[C@@H]2O)c(=O)n1 (stereo partly drawn) | False
* COc1ccc2cc(-c3nc4ccccc4[nH]3)c(=O)oc2c1 | False
* Cc1cc2c(cc1C)[n+](Cc1ccc3ccccc3c1)cn2Cc1ccc2ccccc2c1 | True
* O=C(Nc1ccccc1)P(=O)(O)c1ccccc1 | False
* O=C(Nc1nc2c(C(F)(F)F)cccc2s1)c1cc(Cl)ccc1O | False
* Cc1nn(-c2nc3ccccc3s2)c(C)c1Oc1ccccc1O | False
* Nc1c(C(=O)Nc2cccc(Cl)c2)sc2nc3c(cc12)C(O)CCC3 (stereo not drawn) | False
* Cc1ccc(-c2csc(N)n2)cc1 | False
* COc1ccc(/C=C2\CCc3ccccc3C2=O)cc1 | False
* C[C@H](C(=O)N[C@@H](Cc1ccc(-c2ccccc2)cc1)C(=O)NC1CC(C)(C)N(C)C(C)(C)C1)c1ccc(-c2ccccc2)c(F)c1 | True
* COC(=O)[C@H](CCCCNC(=O)OCc1ccccc1)NC(=O)[C@@H](NC(=O)Nc1cc(C(F)(F)F)cc(C(F)(F)F)c1)C(C)C | True
* CC[C@@H](c1ccc(O)c(O)c1)[C@@H](CC)c1ccc(O)c(O)c1 | False
* CCOC(=O)c1sc(NC(=O)COc2ccc(/C=C3\CCc4cc(OC)ccc4C3=O)cc2)nc1C | False
* C[C@]12CCC(=O)C=C1CCC1C2[C@@H](O)C[C@@]2(C)C1CC[C@]2(O)C(=O)COC(=O)CCC(=O)O (stereo partly drawn) | False
* CCCCCCC(CC#N)(CCC)CCCC (stereo not drawn) | False
* CCN(CC)CCOCC[C@H]1CC[C@H]2[C@@H]3[C@H](C)Cc4cc(OS(N)(=O)=O)ccc4[C@H]3CC[C@]12C | True
* CNc1nc(NC2CCCC2)nc(Sc2ccc(OC)cc2)n1 | False
* COc1ccc2c(c1)[n+](=O)c(/C=C/C(=O)c1cc(OC)c(OC)c(OC)c1)c(C)n2[O-] | False
* CC(C)=CCNc1ncnc2c1ncn2C1OC(COP(=O)(O)O)C(O)C1O (stereo not drawn) | False
* Nc1nc(Nc2ccccc2SSc2ccccc2Nc2nc(N)nc(-c3ccc(I)cc3)n2)nc(-c2ccc(I)cc2)n1 | False
* C=C1CCC2C3(C)COC(c4ccccc4)OC3CCC2(C)C1C/C=C1/C(=O)OCC1OC(C)=O (stereo not drawn) | False
* CCC(=O)Nc1cc2c(cc1Cl)-c1ccccc1C2 | False

---

tested on: NCI-H23 lung; experiment: NCI-60 one-dose screen, 48 h; details: 10 µM unless noted
The panel holds about 83,000 compounds, 20% with a hit somewhere; the sample as a whole holds those more often. The source made the active and inactive calls. How the source made its calls: active means growth percent below 10; inactive means the rest.
Outcomes: 1 = active, -1 = inactive

• O=C(/C=C/c1c(-c2ccccc2)[nH]c2ccccc12)S(=O)(=O)c1ccccc1 = -1
• COC(=O)[C@H](Cc1cnc[nH]1)NC(=O)[C@@H](NC(=O)Nc1cc(C(F)(F)F)cc(C(F)(F)F)c1)C(C)C = 1
• COc1cc(/C=C/C(=O)c2c(C)n([O-])c3ccc(Cl)cc3[n+]2=O)cc(OC)c1OC = -1
• CCOC(=O)C1=CCC(n2cc(C)c(=O)[nH]c2=O)O1 (configuration not stated) = -1
• CC1Cc2ccccc2N1C(=O)c1ccc(C(=O)c2ccccc2)cc1 (configuration not stated) = -1
• CCCCCCCCCCN1CCC(N2CCCCC2)CC1 = -1
• COc1cc(/C=C2\SC(N3CCCCC3)=NC2=O)ccc1OCCCCCCOc1ccc(/C=C2\SC(N3CCCCC3)=NC2=O)cc1OC = 1
• Cn1cc(NC(=O)Nc2cc(C(=O)O)n(C)c2)cc1C(=O)O = -1
• COc1cnc2c(c1)C(=O)c1c-2n(CCCNC2=NCCS2)c(=O)c2cc(F)ccc12 = 1
• O=C(Nc1nn2c(-c3cc(C(F)(F)F)cc(C(F)(F)F)c3)nnc2s1)C1CCCC1 = 1
• Nc1ncnc2c1CN(Cc1ccccc1)CC2 = -1
• N#Cc1c(-c2ccccc2)cc(-c2ccccc2)n(CCCCCCC(=O)O)c1=O = -1
• NC(=N\N=C/Cc1ccccc1)/C(N)=N\N=C\Cc1ccccc1 = -1
• CC(=O)Nc1cc(C(c2ccccc2)c2ccccc2)cc(C(c2ccccc2)c2ccccc2)c1C = -1
• C[C@H]1O[C@@H](O[C@H]2[C@@H](O)C[C@H](O[C@H]3[C@@H](O)C[C@H](O[C@H]4CC[C@]5(C)C6C[C@@H](O)[C@]7(C)[C@@H](C8=CC(=O)OC8)CC[C@]7(O)C6CC[C@@H]5C4)O[C@@H]3C)O[C@@H]2C)C[C@H](O)[C@@H]1O (some centres not stated) = 1
• NS(=O)(=O)c1cc2c(cc1Cl)NC=NS2(=O)=O = -1
• Nc1nc2c(c(=O)[nH]1)C1(C(=O)Nc3ccccc31)c1c(nc(N)[nH]c1=O)N2 = -1
• O=C(Nc1ccccc1S)c1ccccc1 = -1
• CCOC(=O)c1cc2oc(/C=C/c3cc(=O)c4cc(Cl)ccc4o3)cc2[nH]1 = -1
• COc1cc(/C=C/C(=O)C(C(=O)/C=C/c2ccc(OC(=O)CCNc3nnc(C)s3)c(OC)c2)C(=O)CCNc2nnc(C)s2)ccc1OC(=O)CCNc1nnc(C)s1 = -1
• C[C@H]1C(=O)N2c3ccccc3[C@@]3(O)C[C@@H](n4cnc5ccccc5c4=O)C(=O)N1[C@@H]23 = -1
• Nc1nc2c(nnn2Cc2ccc(Cl)c(Cl)c2)c(=O)[nH]1 = -1
• COC(=O)[C@H](Cc1cn(C)cn1)NC(=O)[C@H](Cc1ccccc1)NC(=O)Nc1cc(C(F)(F)F)cc(C(F)(F)F)c1 = 1
• COc1ccc(-c2nc3sc4c(c3c(=O)[nH]2)CCCCCC4)cc1 = -1
• O=C(c1ccccc1)c1ccc(Oc2ccc([N+](=O)[O-])cc2[N+](=O)[O-])cc1 = -1
• N#Cc1c(-c2ccccc2)cc(-c2ccccc2)n(CCCCC(=O)O)c1=O = -1
• Cc1cc2c(cc1C)[n+](Cc1ccc3ccccc3n1)cn2Cc1ccc2ccccc2n1 = 1

---

test system: UACC-257 melanoma; assay: NCI-60 one-dose screen, 48 h; details: 10 µM unless noted
Compounds without any hit were thinned out: in the full panel of roughly 83,000, 20% have a hit. Activity calls are given as the source filed them. How the source made its calls: active means growth percent below 10; inactive means the rest.
Outcomes: T = active, F = inactive

* COc1cc(C2=NN(C=O)C(c3cccc(Nc4ccnc5cc(Cl)ccc45)c3)C2)cc(OC)c1OC (configuration not stated) | F
* CCCCCc1c(C)[nH]c(/C=C2\N=C(c3ccc[nH]3)C=C2OCc2ccccc2)c1C | T
* COC(=O)[C@H]1[C@H]2C[C@@H]3c4[nH]c5cc(OC)ccc5c4CCN3C[C@H]2C[C@@H](OC(=O)/C=C/c2cc(OC)c(OC)c(OC)c2)[C@@H]1OC | F
* N#Cc1c(-c2ccccc2)cc(-c2ccccc2)n(CCC(=O)O)c1=O | F
* Cc1cc(Br)c(C)cc1Br | F
* C=CCN(/C=C/CN(CC=C)CC=C)CC=C | F
* Cc1ccccc1NC(=O)N/C(N)=N/c1nc2ccccc2s1 | F
* COc1cnc2c(c1)C(=O)c1c-2n(CCCN2CCCC2)c(=O)c2cc(F)ccc12 | T
* CC(C)CNc1nc(N=[N+]=[N-])nc(NCC(C)C)n1 | F
* CCCCCc1c(C)[nH]c(/C=C2\N=C(c3ccc[nH]3)C=C2Oc2ccc(Cl)cc2)c1C | T
* Nc1ncnc2c1CN(Cc1ccccc1)CC2 | F
* CCSc1nc(-c2cccs2)n2nc(-c3ccco3)cc2n1 | F
* CCOC(=O)C(Br)=P(c1ccccc1)(c1ccccc1)c1ccccc1 | F
* Cc1cc(C(=O)Nc2ccc3cc(CN4CCOCC4)ccc3n2)c(C)n1-c1ccccc1 | T
* CCCCCCCSc1ncnc2[nH]ncc12 | F
* NC(=N\N=C/Cc1ccccc1)/C(N)=N\N=C\Cc1ccccc1 | F
* O=C(C(=O)N1CCOCC1)c1cn(CCCn2cc(C(=O)C(=O)N3CCOCC3)c3ccccc32)c2ccccc12 | F
* CCN(CC)CCCCCCCNc1c2ccc(Cl)cc2nc2ccc(OC)cc12 | T
* COc1cnc2c(c1)C(=O)c1c-2n(CCCNC2=NCCS2)c(=O)c2cc(F)ccc12 | F
* CC1(C)CC2(C)CC(=O)C1C(C(=O)O)C2C(=O)O (configuration not stated) | F
* COc1cc(/C=C/c2cc(/C=C/c3ccc(O)c(OC)c3)n(C(=O)c3ccc(Cl)cc3)n2)ccc1O | F
* Nc1nc(SCc2cccnc2)c2ncn(C3OC(CO)C(O)C3O)c2n1 (configuration not stated) | F
* Cc1cc(=O)[nH]c(/C(=N/Nc2ccccc2)C(=O)c2ccc(Cl)cc2)n1 | F
* C[C@H]1C(=O)N2c3ccccc3[C@@]3(O)C[C@@H](n4cnc5ccccc5c4=O)C(=O)N1[C@@H]23 | F
* COc1cc(/C=C/C(=O)C(C(=O)/C=C/c2ccc(OC(=O)CCNc3nnc(C)s3)c(OC)c2)C(=O)CCNc2nnc(C)s2)ccc1OC(=O)CCNc1nnc(C)s1 | F
* O=C(Nc1ccc2c(c1)C(=O)c1ccccc1-2)c1ccccc1 | F
* COC(=O)[C@H](CCCCNC(=O)OCc1ccccc1)NC(=O)[C@@H](NC(=O)Nc1cc(C(F)(F)F)cc(C(F)(F)F)c1)C(C)C | T
* CC(C)N(Cc1ccccc1)c1c(S)ssc1=S | T
* Cc1nn2c(/C=C3/C(=O)Nc4cc(Cl)ccc43)c(-c3ccccc3)nc2s1 | T
* COc1ccc2c(c1)CC[C@@H]1[C@@H]2CC[C@]2(C)[C@@H](O)C(=O)C[C@@H]12 | F
* Cc1nn(-c2ccccc2)cc1/C=C1\SC(N2CCCCC2)=NC1=O | F
* C=C(CN1CCc2c([nH]c3ccccc23)C1)c1ccc(C(=O)Nc2ccon2)cc1 | F
